tested on: BT-20 human breast cancer cells; assay: MTT cytotoxicity assay, BT-20; format: cell-based; conditions: BT-20 (breast cancer), 24-36 hours, read-out: IC50 [MTT]
readout: pIC50
Numbers only, as −log10 of the molar value.

compound	pIC50
C#CC[C@H](/C=C/C(C)=C/[C@@H](O)[C@H]1C[C@@H](OC)C[C@@](O)(Cc2nc(/C=C(\C)[C@@H]3O[C@@H]4C/C=C/c5nc(co5)[C@H]5C[C@H](O)C[C@@H](C[C@H]6CC(=C)C[C@H](C/C=C\C(=O)O[C@@H]([C@H]4C)[C@H]3C)O6)O5)co2)O1)OC [Compound 8, 45,46-Dehydrobromo-Phorboxazole A]	7.90

Now examine the next entry.
Value lookup for pIC50; key = C=C1C[C@@H]2C[C@@H]3C[C@@H](O)C[C@@H](O3)c3coc(n3)/C=C/C[C@H]3O[C@@H](/C(C)=C/c4coc(C[C@]5(OC)C[C@H](OC)C[C@H]([C@H](O)/C=C(C)/C=C/[C@@H](C/C=C/Br)OC)O5)n4)[C@H](C)[C@@H](OC(=O)/C=C\C[C@@H](C1)O2)[C@H]3C [Compound 9, 33-O-methyl-Phorboxazole A]
7.95

* * *

Give IC50 for every item shown.
system: U373 human glioblastoma cells; assay: MTT cytotoxicity assay, U373; format: cell-based; conditions: U373 MG, U373 (brain tumor, glioblastoma), 24-36 hours, read-out: IC50 [MTT]
Numbers only, in nM.

Worked set:
compound	unit	test.result
C#CC[C@H](/C=C/C(C)=C/[C@@H](O)[C@H]1C[C@@H](OC)C[C@@](O)(Cc2nc(/C=C(\C)[C@@H]3O[C@@H]4C/C=C/c5nc(co5)[C@H]5C[C@H](O)C[C@@H](C[C@H]6CC(=C)C[C@H](C/C=C\C(=O)O[C@@H]([C@H]4C)[C@H]3C)O6)O5)co2)O1)OC [Compound 8, 45,46-Dehydrobromo-Phorboxazole A]	nM	27.4
C=C1C[C@@H]2C[C@@H]3C[C@@H](O)C[C@@H](O3)c3coc(n3)/C=C/C[C@H]3O[C@@H](/C(C)=C/c4coc(C[C@]5(OC)C[C@H](OC)C[C@H]([C@H](O)/C=C(C)/C=C/[C@@H](C/C=C/Br)OC)O5)n4)[C@H](C)[C@@H](OC(=O)/C=C\C[C@@H](C1)O2)[C@H]3C	nM	29.2

Consider the compound C=C1C[C@@H]2C[C@@H]3C[C@@H](O)C[C@@H](O3)c3coc(n3)/C=C/C[C@H]3O[C@@H](/C(C)=C/c4coc(C[C@]5(O)C[C@H](OC)C[C@H]([C@H](O)/C=C(C)/C=C/[C@@H](C/C=C/Br)OC)O5)n4)[C@H](C)[C@@H](OC(=O)/C=C\C[C@@H](C1)O2)[C@H]3C and give its measured IC50.
6.7

* * *

For each entry below, report its pIC50 value.
Tested on: U373 human glioblastoma cells
Assay: MTT cytotoxicity assay, U373
Type: cell-based
Details: U373 MG, U373 (brain tumor, glioblastoma), 24-36 hours, read-out: IC50 [MTT]
Description: The cytotoxicity assay of synthetic Phorboxazole A and various derivative compounds against human tumor cells was performed using the MTT (3-[4,5-dimethylthiazol-2-yl]-2,5-diphenyl tetrazolium bromide) assay (Boehringer Mannheim Corp., Indianapolis, Ind.). […] The cells were incubated with the various compounds for 24-36 hours at 37° C. in a humidified 5% CO2 atmosphere. […] The absorbance of each well was measured in a microplate reader (Labsystems) at 540 nm and a reference wavelength of 690 nm. […]
pIC50: −log10 of the molar value.

Example results:
compound	pIC50
C=C1C[C@@H]2C[C@@H]3C[C@@H](O)C[C@@H](O3)c3coc(n3)/C=C/C[C@H]3O[C@@H](/C(C)=C/c4coc(C[C@]5(O)C[C@H](OC)C[C@H]([C@H](O)/C=C(C)/C=C/[C@@H](C/C=C/Br)OC)O5)n4)[C@H](C)[C@@H](OC(=O)CCC[C@@H](C1)O2)[C@H]3C [Compound 10, 2,3-Dihydrophorboxazole A]	< 5.70
C=C1C[C@@H]2C[C@@H]3C[C@@H](O)C[C@@H](O3)c3coc(n3)/C=C/C[C@H]3O[C@@H](/C(C)=C/C(CO)NC(=O)C[C@]4(O)C[C@H](OC)C[C@H]([C@H](O)/C=C(C)/C=C/[C@@H](C/C=C/Br)OC)O4)[C@H](C)[C@@H](OC(=O)/C=C\C[C@@H](C1)O2)[C@H]3C (stereo partly shown) [Compound 6, 29-Phorboxamide A (hydrated analog)]	< 5.70
C=C1C[C@@H]2C[C@@H]3C[C@@H](O)C[C@@H](O3)c3coc(n3)/C=C/C[C@H]3O[C@@H](/C(C)=C/c4coc(C[C@]5(O)C[C@H](OC)C[C@H](CO)O5)n4)[C@H](C)[C@@H](OC(=O)/C=C\C[C@@H](C1)O2)[C@H]3C	< 5.70

Provide the documented pIC50 with U373 human glioblastoma cells as the system for C#CC[C@H](/C=C/C(C)=C/[C@@H](O)[C@H]1C[C@@H](OC)C[C@](Cc2nc(/C=C(\C)[C@@H]3O[C@@H]4C/C=C/c5nc(co5)[C@H]5C[C@H](O)C[C@@H](C[C@H]6CC(=C)C[C@H](C/C=C\C(=O)O[C@@H]([C@H]4C)[C@H]3C)O6)O5)co2)(OC)O1)OC
< 5.70
